# apparent KD of K4 kissing-loop reporter per record follows
system: K4 kissing-loop RNA reporter; experiment: apparent KD of K4 kissing-loop reporter; higher = weaker reporter binding; conditions: Eterna round: R107; input ligand: theophylline 20 uM;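 also: bound reporter read as fluorescence of individual clusters on recovered sequencing chips by microscopy, with normalized cluster intensities fitted with a binding model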
Quantity: apparent KD of K4 kissing-loop reporter (nM)

{"columns": ["Biopolymer Sequence", "Value Unit", "Quantitative Readout"],
 "data": [
  ["UGACUGGACUGAAGGAGCGUUGAAGGAGCGUAGGCAGUGAUGUUGCCUACAGGUAGGUCGCAGCAGGUAGGUCGCAGUCUAGUCU [ArgBS 27 #DoubleAptamer #SwitchBubble]", "nM", 66.1],
  ["GCGCGGGAGUGAUGUUCCAAGUGGUGUUAACGAGGACCGGUACGGCCGCCACUCGAUACGGCCGGGCCGUAGGAUAAACUGGCGC [Same State - Tryptophan A (Freestyle 14)]", "nM", 318],
  ["UCUGGAGGAUAUGAUACCAGCAGUGAGAGAGAGGAAGUAUAGUGAUGUUAUAUGAGAGAAUGCCCUUGGCAGCGUGUGUAGUGGG [SSTheophylB.L]", "nM", 151]
]}

###

tested on: MS2 coat protein; assay: apparent KD of MS2 coat protein; designed switch direction (-1 OFF switch, 1 ON switch): 1; higher = weaker reporter binding; settings: input ligand: microRNA oligo, concentration not stated
# apparent KD of MS2 coat protein per record follows
Quantity: apparent KD of MS2 coat protein (nM)

{"columns": ["Biopolymer Sequence", "Test System", "Quantity", "Value Unit", "Quantitative Readout"],
 "data": [
  ["AUUAUUUAUGCAGGAUAUGAUUAACAUGAGGAUCACCCAUGUGGUGUUGUGAGUAAGGAGAGUGAUCAGAAGGGCAUUUCUUUU [JMF's solution 49] (Eterna round: R96, puzzle: Same State NG 2)", "MS2 coat protein", "apparent KD of MS2 coat protein", "nM", 315],
  ["AGCUAGUACGAAGGAUAUACAAACAUGAGGAUCACCCAUGUAUACAUGGUUAGAUGUGACUACAUGUAGAAGGUCGUACUAGCA [SameState NG2 #15] (Eterna round: R96, puzzle: Same State NG 2)", "MS2 coat protein", "apparent KD of MS2 coat protein", "nM", 331],
  ["GUGCGGGUGCCACAGGAUAUACGUGGAUCGACAUGAGGAUCACCCAUGUAUAUCCUAAUAAUUGCGUAGAAGGGUGGUCAGCCGU [Enbebiqu] (Eterna round: R96, puzzle: Same State 2)", "MS2 coat protein", "apparent KD of MS2 coat protein", "nM", 196],
  ["GUGCUCGUGUAAGGAUAUGCUUCCGUUUCGGCUGCAGAAGGUACUAUUAUACAUGAGGAUCACCCAUGUCUCUUUUGUUUGGUG [salish99_SSNG1_r04_909] (Eterna round: R96, puzzle: Same State NG 1)", "MS2 coat protein", "apparent KD of MS2 coat protein", "nM", 55.5],
  ["UAAUUAAGUCAAGGAUAUCACGUCGUUUAGACGUGAGAAGGUGAUUAAUACAUGAGGAUCACCCAUGUAAUACAUGAAUAAUUA [SSNG1/11-B3] (Eterna round: R96, puzzle: Same State NG 1)", "MS2 coat protein", "apparent KD of MS2 coat protein", "nM", 59.5],
  ["GCUCGACUGAUGGCCUACAUGAGGAUCACCCAUGUGAUUGGGCAGGAUAUCUAGAUGCAGGAUGUAGAGAAGGGCCAGUCGAGC [SameState NG3 #45] (Eterna round: R96, puzzle: Same State NG 3)", "MS2 coat protein", "apparent KD of MS2 coat protein", "nM", 477],
  ["GGAGCCGGCCUAGGAUAUUUCAUCAAAAAACAUGAGGAUCACCCAUGUAGGCCAGAAGGCCUUGGGAAGAAGGAGGUCGGCUCC [Loop Effect - C24] (Eterna round: R96, puzzle: Same State NG 2)", "MS2 coat protein", "apparent KD of MS2 coat protein", "nM", 14.6],
  ["AAAAAACAUGAGGAUCACCCAUGUAAAAAAAUGGGAGGAUAUACAAAAACGAAAGUCAAAGUAGAAGGCCUGAAAA [same state 5] (Eterna round: R96, puzzle: Same State 1)", "MS2 coat protein", "apparent KD of MS2 coat protein", "nM", 78.6],
  ["GGAAAGAGGUAAGGAUAUGCAUGGCUGGGACAUGAGGAUCACCCAUGUUGGAGAAGAAAUCUAGGGUAGAAGGUACAAGGAAGG [AK SSNG2-V2-10] (Eterna round: R96, puzzle: Same State NG 2)", "MS2 coat protein", "apparent KD of MS2 coat protein", "nM", 220]
]}

###

system: MS2 coat protein; experiment: apparent KD of MS2 coat protein; designed switch direction (-1 OFF switch, 1 ON switch): -1; higher = weaker reporter binding; settings: input ligand: none
# apparent KD of MS2 coat protein per record follows
Quantity: apparent KD of MS2 coat protein (nM)

{"columns": ["Biopolymer Sequence", "Quantity", "Quantitative Readout"],
 "data": [
  ["GCUGGUCGAGGAUAUGCAUAUACUGGAUACAGUGGAAGGUCACAUGAGGAUCACCCAUGUAGAAGGCGACUAGC [EX2 #37] (Eterna round: R97, puzzle: Exclusion 2)", "apparent KD of MS2 coat protein", 463],
  ["CCUACUCAGCGAGGAUAUGUAACGGUGACUAGGGACGUCUACAUGAGGAUCACCCAUGUGACUAAGCAGAAGGCGCAGAGCCCA [Learve] (Eterna round: R96, puzzle: Exclusion NG 2)", "apparent KD of MS2 coat protein", 47.7],
  ["AGCCCUGCAGGAUAUGCCCGGGAUAACAUGAGGAUCACCCAUGUGACUGAUUGUUAUUCUGCAGAAGGGUAUGGGA [JL-EX5-4.16 ViennaUCT mod] (Eterna round: R97, puzzle: Exclusion 5)", "apparent KD of MS2 coat protein", 322]
]}

###

# apparent KD of MS2 coat protein per record follows
tested on: MS2 coat protein; assay: apparent KD of MS2 coat protein, switch ON state; designed switch direction (-1 OFF switch, 1 ON switch): -1; higher = weaker reporter binding; settings: FMN input: 0 or 200 uM; Eterna round: R93 (includes R88 designs)

{"columns": ["Biopolymer Sequence", "Value Unit", "apparent KD of MS2 coat protein"],
 "data": [
  ["AAUAAGUCAGGAUAUGCAAAUAAUAAAUAAAAUAAAAUAAAGCAGAAGGGACAUGAGGAUCACCCAUGUAAAUA [Opal 40]", "nM", 47.9],
  ["AAAAAAGGAGGAUAUACGAACAUGUCGAAAGACGUGAAGGGACAUGAGGAUCACCCAUGUAGAAGGUUUAAAAA [Mat - Exclusion 2 - JL mod - D85]", "nM", 35.9],
  ["AAAAAGUGAGGAUAUACGAUGUGGAGUAGACACAACCAGACGUAGAAGGCACAUGAGGAUCACCCAUGUCCAAA [EX4 Malc#17]", "nM", 21],
  ["CCUGUGUGAGGAUAUGGUAAAAAAAAAAAAAAAUAGCUCCUCCAGAAGGCACAUGAGGAUCACCCAUGUCGUGG [Jolly's Folly 16 - Jieux - Exclusion 4]", "nM", 37.6],
  ["CUCAAGUAAGGAUAUCUAAGAAAAGAAGAGAAAGAAAAGAAAGAGAAGGUACAUGAGGAUCACCCAUGUAAGAA [EteRNA is fun!]", "nM", 34.4],
  ["GUGUACAGAGGAUAUACUGGAGCAUGGAAACAUGCAAGAUCACAUGAGGAUCACCCAUGUAGAAGGCUGUACAC [Ex2: 742]", "nM", 119],
  ["AACUGACAUGAGGAUCACCCAUGUCAGGAUAUGCUUCAUAAAAUAAAAAUAAAAUGAUGCAGAAGGGACAUGAA [Design 27 :P Sub-opt 3]", "nM", 15.4],
  ["AAAAAACAUGAGGAUCACCCAUGUGAGGAUAUCGAAAAAAAAAUAAAAAUAAAACAUACGAGAAGGCACACCAA [Amethyst 59]", "nM", 30.5],
  ["AAGAUGUGAGGAUAUGCUUGUCGUCACAAAAGUGAUGACGAGCAGAAGGCACAUGAGGAUCACCCAUGUAAAGA [Opal 26]", "nM", 90.1],
  ["AUUCUACAUGAGGAUCACCCAUGUGAGGAUAUGCUAUACUAUUGUUGCAAUACUUAGAGCAGAAGGCACAUCGU [JR_EXc001_Sub801]", "nM", 30.2],
  ["AAAACGUGAGGAUAUGCACCAAAAAAGGUUUUUCGGGUACGACAUGAGGAUCACCCAUGUAGAAGGCACGAAAA [Frodo Flailing 14 - Jieux - Exclusion 2]", "nM", 20.3],
  ["AAAUGUCUAGGAUAUACAUGAGGAUCACCCAUGUGUAAAAAUAAAUACACAAAAGAAAGUAGAAGGAGACAAAG [Mat - Exclusion 3 - Mayanna mod - D121]", "nM", 21.6],
  ["AAAAAGGUAGGAUAUACAUGAGGAUCACCCAUGUAAAAAAACGCAGAAAAAAACAAUUGUAGAAGGGCCAAAAA [Ex3 Malc#6]", "nM", 15.9]
]}

FYI, the data here is from the supplement of paper PMC9170038.
